Values from the Immune Epitope Database (IEDB)

Target: HLA-B*15:17
Test: IEDB peptide-MHC binding, purified MHC/direct/fluorescence; filed as Kd, often an IC50 or EC50 that approximates it; bounds were set here for any values at or beyond the usual limits of such assays
Settings: source organism: Yersinia pestis
READOUT NAME: Kd

Input: Give recorded Kd. RPQLWRYRW
Output: ≥ 20 µM

###

Biological target: HLA-B*35:01
Assay: IEDB peptide-MHC binding, purified MHC/direct/fluorescence; filed as Kd, often an IC50 or EC50 that approximates it; bounds were set here for any values at or beyond the usual limits of such assays
Conditions: source organism: Vibrio cholerae
READOUT NAME: pKd
Note: pKd values are expressed as the negative base-10 logarithm of concentration in M.

Input: Give recorded pKd. MMFDAMGAL
Output: 7.73
